# assayed system: Aldose reductase (Oryctolagus cuniculus, UniProt P15122)
# Construct: Aldose reductase is isolated by homogenizing the lens in 3 volumes of water; from tissue; host or cells: lens of mature New Zealand rabbits
# assay comment: Aldose reductase inhibition, in vitro (loss of absorbance at 340 millimicrons, glyceraldehyde substrate, NADPH)
# Type: biochemical, New Zealand rabbits (lens)
# study conditions: 1 × 10^-5 molar concentration of xanthone compound; pH 6.0, 37° C
measure: inhibition at 10 µM (%)

(P) COc1cc(OC)c2oc3ccc(C(=O)O)cc3c(=O)c2c1
(Q) CCCCCCCCOc1cc([S+](C)[O-])cc2c(=O)c3cc(C(=O)O)ccc3oc12 (centres unmarked)
Compare reported inhibition at 10 µM values for P and Q . Which is lower? Refer to your chosen entry by its label in the reply.
P

###

# assayed system: Aldose reductase (Oryctolagus cuniculus, UniProt P15122)
# Construct: Aldose reductase is isolated by homogenizing the lens in 3 volumes of water; from tissue; host or cells: lens of mature New Zealand rabbits
# assay comment: Aldose reductase inhibition, in vitro (loss of absorbance at 340 millimicrons, glyceraldehyde substrate, NADPH)
# Type: biochemical, New Zealand rabbits (lens)
# study conditions: 1 × 10^-5 molar concentration of xanthone compound; pH 6.0, 37° C
measure: inhibition at 10 µM (%)

If you can, please state the reported inhibition at 10 µM value of CSc1cc(OC(C)C)c2oc3ccc(C(=O)O)cc3c(=O)c2c1 .
67

If you can, please state the reported inhibition at 10 µM value of O=C(O)c1ccc2oc3ccc(OCC(O)CO)cc3c(=O)c2c1 (stereo not shown) .
81

If you can, please state the reported inhibition at 10 µM value of C[S+]([O-])c1cc(S(C)(=O)=O)cc2c(=O)c3cc(C(=O)O)ccc3oc12 (stereo not shown) .
50

If you can, please state the reported inhibition at 10 µM value of CC(C)Oc1ccc2oc3ccc(C(=O)O)cc3c(=O)c2c1 .
73

If you can, please state the reported inhibition at 10 µM value of CCC(=O)c1ccc2oc3ccc(C(=O)O)cc3c(=O)c2c1 .
54

If you can, please state the reported inhibition at 10 µM value of COc1cccc2c(=O)c3cc(C(=O)O)ccc3oc12 .
50

If you can, please state the reported inhibition at 10 µM value of CC(C)N(C)S(=O)(=O)c1ccc2oc3ccc(C(=O)O)cc3c(=O)c2c1 .
69

If you can, please state the reported inhibition at 10 µM value of CCCCN(C)S(=O)(=O)c1ccc2oc3ccc(C(=O)O)cc3c(=O)c2c1 .
75

If you can, please state the reported inhibition at 10 µM value of O=C(O)c1ccc2oc3ccc(S(=O)(=O)N(CCO)CCO)cc3c(=O)c2c1 .
67

If you can, please state the reported inhibition at 10 µM value of CC(C)CCOc1cc([S+](C)[O-])cc2c(=O)c3cc(C(=O)O)ccc3oc12 (stereo not shown) .
65

###

# assayed system: Aldose reductase (Oryctolagus cuniculus)
# Construct: Aldose reductase is isolated by homogenizing the lens in 3 volumes of water; from tissue; host or cells: lens of mature New Zealand rabbits
# assay comment: Aldose reductase inhibition, in vitro (loss of absorbance at 340 millimicrons, glyceraldehyde substrate, NADPH)
# Assay type: biochemical, New Zealand rabbits (lens)
# study conditions: 1 × 10^-6 molar concentration of xanthone compound; pH 6.0, 37° C
measure: inhibition at 1 µM (%)

Would you please look over these solved cases?
If you can, please state the reported inhibition at 1 µM value of O=C(O)c1ccc2oc3ccc(OCC(O)CO)cc3c(=O)c2c1 (stereo not drawn) .
54

If you can, please state the reported inhibition at 1 µM value of CSc1cc(C(C)C)c2oc3ccc(C(=O)O)cc3c(=O)c2c1 .
17

If you can, please state the reported inhibition at 1 µM value of CCCCCOc1cc([S+](C)[O-])cc2c(=O)c3cc(C(=O)O)ccc3oc12 (stereo not drawn) [CH3 1 n-C5 H11 O] .
35

(A) CCCCCCCCOc1cc([S+](C)[O-])cc2c(=O)c3cc(C(=O)O)ccc3oc12 (stereo not drawn) [CH3 1 n-C8 H11 O]
(B) COc1ccc2oc3ccc(C(=O)O)cc3c(=O)c2c1 [CH3 O H]
Compare reported inhibition at 1 µM values for A and B . Which is lower? Refer to your chosen entry by its label in the reply.
B

(a) CSc1cc(OC(C)C)cc2c(=O)c3cc(C(=O)O)ccc3oc12
(b) CSc1cc(OC(C)C)c2oc3ccc(C(=O)O)cc3c(=O)c2c1
(c) CCC(=O)c1ccc2oc3ccc(C(=O)O)cc3c(=O)c2c1 [CH3 CH2 H]
Place the items in sequence of falling inhibition at 1 µM. Answer with the labels in sequence, matching the requested order.
c, a, b
(c: 50%, a: 30%, b: 17%)
